Quick reference for viability, T/C among some compounds
- Test system: 422866-222-R5-J1-PDC complex spheroids viability
- test name: Anticancer human tumor 422866-222-R5-J1-PDC patient-derived pancreatic adenocarcinoma cell line growth inhibition [RAS]
- condition summary: second compound 0.3 µM; first compound 0.0316 µM; hits give low values
// note: answer is a bare numeric in %

Here's what some known entries look like.
| compound | viability, T/C, % |
| --- | --- |
| CCC(CC)c1cc(NC2CCC(N)C2)n2nccc2n1 (centres undefined) + CCn1c(-c2cc(N3CCN(C)CC3)cnc2C(C)OC)c2c3cc(ccc31)-c1csc(n1)CC(NC(=O)C1CC1C)C(=O)N1CCCC(N1)C(=O)OCC(C)(C)C2 | 22.4 |
| C=CC(=O)Nc1cc(Nc2nccc(-c3cn(C)c4ccccc34)n2)c(OC)cc1N(C)CCN(C)C + CCn1c(-c2cc(N3CCN(C)CC3)cnc2C(C)OC)c2c3cc(ccc31)-c1csc(n1)CC(NC(=O)C1CC1C)C(=O)N1CCCC(N1)C(=O)OCC(C)(C)C2 | 19.1 |
| Nc1ccn(C2OC(CO)C(O)C2(F)F)c(=O)n1 (centres undefined) + CCn1c(-c2cccnc2C(C)OC)c2c3cc(ccc31)N1CCOC(CC(NC(=O)C(C(C)C)N(C)C(=O)C3(F)CCN(C(=O)C#CC(C)(C)N(C)C)CC3)C(=O)N3CCCC(N3)C(=O)OCC(C)(C)C2)C1 | 14.3 |

Pending compound:
### Prompt Given the compound CC(C)NCC(C(=O)N1CCN(c2ncnc3c2C(C)CC3O)CC1)c1ccc(Cl)cc1 (centres undefined) + CCn1c(-c2cc(N3CCN(C)CC3)cnc2C(C)OC)c2c3cc(ccc31)-c1csc(n1)CC(NC(=O)C1CC1C)C(=O)N1CCCC(N1)C(=O)OCC(C)(C)C2 , write its reported viability, T/C.
### Response 18.8

---

Quick reference for viability, T/C among some molecules
- Tested on: 422866-222-R5-J1-PDC complex spheroids viability
- test name: Anticancer human tumor 422866-222-R5-J1-PDC cell line growth inhibition [RAS];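 further: spheroids exposed to compounds for 7 days; 100% = DMSO vehicle control viability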
- condition summary: second compound 0.3 µM; first compound 0.0316 µM; hits give low values
// note: answer is a bare numeric in %

Here's what some known entries look like.
| molecule | unit of measure | viability, T/C |
| --- | --- | --- |
| CC(Nc1ccc2c(c1)OCCn1cc(N3C(=O)OCC3C(F)F)nc1-2)C(N)=O (stereo not drawn) + CCn1c(-c2cc(N3CCN(C)CC3)cnc2C(C)OC)c2c3cc(ccc31)-c1csc(n1)CC(NC(=O)C1CC1C)C(=O)N1CCCC(N1)C(=O)OCC(C)(C)C2 | % | 13.9 |
| C=CC(=O)Nc1cc(Nc2nccc(-c3cn(C)c4ccccc34)n2)c(OC)cc1N(C)CCN(C)C + CCn1c(-c2cccnc2C(C)OC)c2c3cc(ccc31)N1CCOC(CC(NC(=O)C(C(C)C)N(C)C(=O)C3(F)CCN(C(=O)C#CC(C)(C)N(C)C)CC3)C(=O)N3CCCC(N3)C(=O)OCC(C)(C)C2)C1 | % | 17.4 |
| Cc1nc(N2CCC3(CC2)COC(C)C3N)c(CO)nc1Sc1ccnc(N)c1Cl (stereo not drawn) + CCn1c(-c2cccnc2C(C)OC)c2c3cc(ccc31)N1CCOC(CC(NC(=O)C(C(C)C)N(C)C(=O)C3(F)CCN(C(=O)C#CC(C)(C)N(C)C)CC3)C(=O)N3CCCC(N3)C(=O)OCC(C)(C)C2)C1 | % | 17.5 |
| CC(=O)OC12COC1CC(O)C1(C)C(=O)C(O)C3=C(C)C(OC(=O)C(O)C(NC(=O)OC(C)(C)C)c4ccccc4)CC(O)(C(OC(=O)c4ccccc4)C21)C3(C)C (stereo not drawn) + CCn1c(-c2cccnc2C(C)OC)c2c3cc(ccc31)N1CCOC(CC(NC(=O)C(C(C)C)N(C)C(=O)C3(F)CCN(C(=O)C#CC(C)(C)N(C)C)CC3)C(=O)N3CCCC(N3)C(=O)OCC(C)(C)C2)C1 | % | 16.2 |

### Prompt Please look at Nc1ccn(C2OC(CO)C(O)C2(F)F)c(=O)n1 (stereo not drawn) + CCn1c(-c2cc(N3CCN(C)CC3)cnc2C(C)OC)c2c3cc(ccc31)-c1csc(n1)CC(NC(=O)C1CC1C)C(=O)N1CCCC(N1)C(=O)OCC(C)(C)C2 and tell me its recorded viability, T/C on 422866-222-R5-J1-PDC complex spheroids viability.
### Response 18.5

### Prompt Please look at C[C@@H](NC(=O)c1ncnc(N)c1Cl)c1ncc(C(=O)Nc2cc(C(F)(F)F)c(Cl)cn2)s1 + CCn1c(-c2cccnc2C(C)OC)c2c3cc(ccc31)N1CCOC(CC(NC(=O)C(C(C)C)N(C)C(=O)C3(F)CCN(C(=O)C#CC(C)(C)N(C)C)CC3)C(=O)N3CCCC(N3)C(=O)OCC(C)(C)C2)C1 and tell me its recorded viability, T/C on 422866-222-R5-J1-PDC complex spheroids viability.
### Response 18

### Prompt Please look at CCN1CCN(Cc2ccc(Nc3ncc(F)c(-c4cc(F)c5nc(C)n(C(C)C)c5c4)n3)nc2)CC1 + CCn1c(-c2cc(N3CCN(C)CC3)cnc2C(C)OC)c2c3cc(ccc31)-c1csc(n1)CC(NC(=O)C1CC1C)C(=O)N1CCCC(N1)C(=O)OCC(C)(C)C2 and tell me its recorded viability, T/C on 422866-222-R5-J1-PDC complex spheroids viability.
### Response 20.9

### Prompt Please look at Cc1nc(N2CCC3(CC2)COC(C)C3N)c(CO)nc1Sc1ccnc(N)c1Cl (stereo not drawn) + CCn1c(-c2cc(N3CCN(C)CC3)cnc2C(C)OC)c2c3cc(ccc31)-c1csc(n1)CC(NC(=O)C1CC1C)C(=O)N1CCCC(N1)C(=O)OCC(C)(C)C2 and tell me its recorded viability, T/C on 422866-222-R5-J1-PDC complex spheroids viability.
### Response 20.1
